biological target: Nonstructural protein 3 (Zika virus); test: Functional biochemical assay to identify treatments for viral infectious disease that targets Zika NS2B-NS3 protease. Utilizing a direct enzyme activity measurement method, reading the fluorescence intensity is used to characterize the relative potency of inhibitors as IC50.; set-up: species or system PRVABC59
The following compounds are shown together with reported IC50 values.

Consider the worked cases shown below.
With Nonstructural protein 3 (Zika virus) as the test system, `COCCNC(=O)[C@H](Nc1cccc([C@H]2CCOC2)c1)c1cc(Br)cc2[nH]ccc12` showed IC50 of > 25 µM

Item `O=C(Nc1cc(Cl)cc(C(=O)Nc2cccc(Cc3nn[nH]n3)c2)c1)OCc1ccccc1` was tested on Nonstructural protein 3 (Zika virus); the reported IC50 is 64.9 µM

Kindly note: Nonstructural protein 3 (Zika virus), `Cc1nccn1-c1ccc(Cl)cc1C(=O)Nc1cccc(CN)c1` , IC50 value reported: > 99.5 µM

Here `Cc1nc(N2CCOCC2)sc1CC(=O)Nc1cccc(CN)c1` was tested on Nonstructural protein 3 (Zika virus), and its IC50 came to > 99.5 µM

Now look at this entry.
Query `CN1CC[C@H](C2CCN(S(=O)(=O)c3cc(F)cc(C(=O)O)c3)CC2)C1` on Nonstructural protein 3 (Zika virus); IC50 returned: > 99.5 µM

* * *

The entries below come with measured pIC50 values attached.
molecular target: Nonstructural protein 3 (Zika virus, UniProt A0A024AXB9); assay: Functional biochemical assay to identify treatments for viral infectious disease that targets Zika NS2B-NS3 protease. Utilizing a direct enzyme activity measurement method, reading the fluorescence intensity is used to characterize the relative potency of inhibitors as IC50.; design: species or system PRVABC59
Sequence (A0A024AXB9 whole entry): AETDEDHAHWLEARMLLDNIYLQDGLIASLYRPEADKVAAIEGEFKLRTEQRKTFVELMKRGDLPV
pIC50: −log10 of the molar value.

The observed pIC50 for `CCn1ncc2c(C(=O)Nc3cccc(CN)c3)cc(C)nc21` when tested with Nonstructural protein 3 (Zika virus, UniProt A0A024AXB9) stands at < 4.00

GET /values?item= `Cc1c(C(=O)Nc2ccc([C@@H](C)N)cc2)cc(C2CC2)n1C` &system= Nonstructural protein 3 (Zika virus, UniProt A0A024AXB9) returns pIC50: < 4.00

Summary: `CC(F)(F)c1cccc(NC(=O)c2cc(Cl)cc(NC(=O)OCc3ccccc3)c2)c1` , Nonstructural protein 3 (Zika virus, UniProt A0A024AXB9), pIC50 = < 4.00

Kindly note: Nonstructural protein 3 (Zika virus, UniProt A0A024AXB9), `COc1ccc(COc2ccc([C@H](NC(=O)OCc3ccccc3)C(=O)Nc3cccc(CN)c3)cc2)cn1` , pIC50 value reported: 4.41

Record `NCc1cccc(NC(=O)[C@@H](NC(=O)OCc2ccccc2)c2ccc(OC[C@H]3CCS(=O)(=O)C3)cc2)c1` has Nonstructural protein 3 (Zika virus, UniProt A0A024AXB9) pIC50 equal to < 4.00

GET /values?item= `COCCN(C)C(=O)Cn1ccnc(N2CC[C@@H](CO)C2)c1=O` &system= Nonstructural protein 3 (Zika virus, UniProt A0A024AXB9) returns pIC50: < 4.00

***
Log: Nonstructural protein 3 (Zika virus, UniProt A0A024AXB9), molecule `Cc1noc(C)c1C(=O)N[C@@H](C(=O)Nc1cccc(CN)c1)c1ccc(OCc2ccccc2)cc1` , pIC50 = < 4.00

The molecule `O=C(c1cc(Cl)ccc1NS(=O)(=O)c1ccc(Oc2ccccc2Cl)cc1)N1CCNCC1` , tested on Nonstructural protein 3 (Zika virus, UniProt A0A024AXB9), showed pIC50 of < 4.00

Reading of pIC50 for `NC(=O)c1[nH]c2ccc(Br)cc2c1Cc1ccc(-c2nnn[nH]2)cc1` with Nonstructural protein 3 (Zika virus, UniProt A0A024AXB9): < 4.00

Bench note, Nonstructural protein 3 (Zika virus, UniProt A0A024AXB9): `CC(=O)N1CCC([C@H](NC(=O)OCc2ccccc2)C(=O)Nc2cccc(CN)c2)CC1` , pIC50 reads < 4.00

Entry `NCc1cc(NC(=O)c2cc(Cl)cc(NC(=O)OCc3ccccc3)c2)cc(-c2ccc(OCC(=O)O)nc2)c1` under Nonstructural protein 3 (Zika virus, UniProt A0A024AXB9) had pIC50 of < 4.60

Readout pIC50 for `O=C(O)C[C@H]1CN(c2ccc(-c3cc(Cl)cc(NC(=O)OCc4ccccc4)c3)cn2)CCO1` , test system Nonstructural protein 3 (Zika virus, UniProt A0A024AXB9), was < 4.00

Here `Cc1cc(C=O)c(O)c(C(=O)N2CC[C@H](CN(C)C)C2)c1` was tested on Nonstructural protein 3 (Zika virus, UniProt A0A024AXB9), and its pIC50 came to < 4.00

Tested on Nonstructural protein 3 (Zika virus, UniProt A0A024AXB9): `O=C(Nc1ccc2c(c1)CNC2)c1cccc2c1[C@]1(CCNC1)C(=O)N2` . Observed pIC50: 6.95

Record `CC(C)c1cc(Br)cc(C(=O)Nc2ccc3c(c2)CNC3)c1` / Nonstructural protein 3 (Zika virus, UniProt A0A024AXB9), pIC50 recorded as 6.41
